- Target: Kir3.1/Kir3.4 (Homo sapiens) (UniProt P48549+P48544)
- Protocol description: Activation of human GIRK1/4 expressed in HEK293 cells co-expressing rat mGlu8 by thallium flux assay relative to control
- Type: cell-based
Property label: Emax

Reference set (5 entries):
Could you please provide reported Emax for Cc1cc(NC(=O)Cn2cc(-c3ccccc3)cn2)n(C2CCCCC2)n1 ? Thanks!
52%

Output Emax of Cc1cc(NC(=O)Cn2nnc(-c3cc(Cl)cc(Cl)c3)n2)n(C2CCCCC2)n1
51%

Identify measured Emax corresponding to Cc1ccc(-c2nnn(CC(=O)Nc3cc(C)nn3C3CCCCC3)n2)cc1
64%

Name the recorded Emax of the item Cc1cc(NC(=O)Cc2coc(-c3ccccc3)n2)n(C2CCCCC2)n1 in your answer.
22%

State its Emax for this compound: O=C(Cn1nnc(-c2ccccc2)n1)Nc1cc(C2CC2)nn1C1CCCCC1
15%

Each of the following entries comes with a recorded value; kindly state Emax for each.
1. Cc1cc(NC(=O)Cn2nnc(-c3cccc(F)c3)n2)n(C2CCCCC2)n1
2. Cc1cc(NC(=O)Cn2nnc(-c3ccccc3)n2)n(C2CCC(F)(F)CC2)n1
3. Cc1cc(NC(=O)Cn2nncc2-c2ccccc2)n(C2CCCCC2)n1
4. Cc1cc(NC(=O)Cn2nnc(-c3ccc(F)cc3)n2)n(C2CCCCC2)n1

1. 80%
2. 52%
3. 49%
4. 74%
